Parameter: log10(Binding affinity (RU)). Scope: all listed entries.
# target: acetylcholine receptor
# test name: SPR, AchR immobilised on CM5 chip, peptide at 10 uM
The figures below represent log10 of Binding affinity (RU), where Binding affinity (RU) is stated in RU.

Consider the reported log10(Binding affinity (RU)) for these binders:
I would be grateful if you could share the reported log10(Binding affinity (RU)) for RMNVR [5mer-1179] .
1.26

Ok, now RCSWK [5mer-1171]
1.32

Ok, now KMSPR [5mer-894]
1.26

More entries:
I would be grateful if you could share the reported log10(Binding affinity (RU)) for RKGIQK [6mer-1-432] .
2.14

Ok, now KKWKK [5mer-1159]
1.23

Ok, now KTPGR [5mer-889]
1.40

Ok, now RMDWK [5mer-1191]
1.48

Ok, now RYCMR [5mer-898]
1.30

Ok, now KENFK [5mer-1152]
1.26

Ok, now RKKWK [5mer-872]
1.46

Ok, now RIMGR [5mer-858]
1.52

Ok, now RDMIR [5mer-1175]
1.48

Ok, now RIKIK [5mer-893]
1.26

Ok, now KMWVK [5mer-1186]
1.08

Ok, now KDTPK [5mer-1169]
1.46

Ok, now RRGFYR [6mer-1-460]
2.17

Ok, now KRSICR [6mer-1-466]
2.17

Ok, now KRSFRK [6mer-1-463]
2.18

Ok, now RIHMR [5mer-874]
1.43

Ok, now RYNFR [5mer-873]
1.51

Ok, now KRVLRK [6mer-1-410]
2.17
